Readings of EC50, ISRE-luciferase reporter assay in 293T cells for the listed binders
- SYSTEM UNDER TEST: T1, type I interferon receptor (UniProt P17181 28-557; P48551 27-515, limits assumed)
- T1 sequence (looked up) 1: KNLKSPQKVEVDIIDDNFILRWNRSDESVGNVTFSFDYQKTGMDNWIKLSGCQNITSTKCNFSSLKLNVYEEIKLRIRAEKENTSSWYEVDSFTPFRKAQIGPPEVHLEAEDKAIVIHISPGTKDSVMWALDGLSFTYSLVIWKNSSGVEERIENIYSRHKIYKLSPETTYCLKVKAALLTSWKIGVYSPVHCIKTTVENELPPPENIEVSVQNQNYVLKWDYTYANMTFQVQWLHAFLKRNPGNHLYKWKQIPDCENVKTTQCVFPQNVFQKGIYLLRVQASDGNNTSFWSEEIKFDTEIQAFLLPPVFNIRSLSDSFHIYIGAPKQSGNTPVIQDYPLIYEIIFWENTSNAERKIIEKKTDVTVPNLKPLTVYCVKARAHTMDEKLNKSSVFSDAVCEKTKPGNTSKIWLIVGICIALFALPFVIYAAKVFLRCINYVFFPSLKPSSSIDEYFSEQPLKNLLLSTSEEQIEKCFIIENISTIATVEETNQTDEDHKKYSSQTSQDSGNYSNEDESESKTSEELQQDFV
- T1 sequence (looked up) 2: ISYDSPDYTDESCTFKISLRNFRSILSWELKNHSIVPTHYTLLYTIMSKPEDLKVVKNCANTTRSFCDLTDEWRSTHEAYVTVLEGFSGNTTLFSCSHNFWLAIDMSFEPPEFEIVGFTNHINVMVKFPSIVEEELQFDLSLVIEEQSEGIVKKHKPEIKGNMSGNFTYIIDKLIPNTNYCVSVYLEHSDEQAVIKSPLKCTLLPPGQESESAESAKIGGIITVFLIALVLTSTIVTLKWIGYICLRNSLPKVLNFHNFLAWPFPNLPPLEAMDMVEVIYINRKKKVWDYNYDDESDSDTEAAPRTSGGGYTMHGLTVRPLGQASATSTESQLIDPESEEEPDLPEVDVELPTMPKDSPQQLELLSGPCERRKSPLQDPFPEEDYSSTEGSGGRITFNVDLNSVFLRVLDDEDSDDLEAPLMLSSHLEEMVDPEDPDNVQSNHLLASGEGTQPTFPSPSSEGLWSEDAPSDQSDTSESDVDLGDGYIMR
- TEST DESCRIPTION: cell-based or functional assay
MEASURED PARAMETER: EC50, ISRE-luciferase reporter assay in 293T cells (log ng/ml)

{"BINDER": "IFB1_15 (ligand) MGSSHHHHHHSSGLVPRGSHMSYNQLGELQRSSNFQSQKLLWQLNGRLEYCLKDRMNFDIPEEIKQLQQFQKEDAALTIYEMLQNIFAIFRQDSSSTGWNETIVENLLANVYHQINHLKTVLEEKLEKEDNTRGKLMSSLHLKRYYGRILHYLKAKEYSHCAWTIVRVEILRNFYFINRLTGYLRN", "MEASURED": 0.319}
{"BINDER": "IFB1_36 (ligand) MGSSHHHHHHSSGLVPRGSHMSYNLLGELQRSSNFQSQKLLWQLNGRLEYCLKDRMNFDIPEEIKQLQQFQKEDAALTIYEMLQNIFAIFRQDSSSTGWNETIVENLLANVYHQINHLKTVLEEKLEKEDNTRGKEMSSLHLKRYYGRILHYLKAKEYSHCAWTIVRVEILRNFYFINRLTGYLRN", "MEASURED": 0.294}
{"BINDER": "IFB1_64 (ligand) MGSSHHHHHHSSGLVPRGSHMSYNQLGELQRSSNFQSQKLLWQLNGRLEYCLKDRMNFDIPEEIKQKQQFQKEDAALTIYEMLQNIFAIFRQDSSSTGWNETIVENLLANVYHQINHLKTVLEEKLEKEDNTRGKEMSSRHLKRYYGRILHYLKAKEYSHCAWTIVRVEILRNFYFINRLTGYLRN", "MEASURED": 0.24}
{"BINDER": "IFB1_7 (ligand) MGSSHHHHHHSSGLVPRGSHMSYNQLGELQRSSNFQSQKLLWQLNGRLEYCLKDRMNFDIPEEIKQLQQFQKEDAALTIYEMLQNIFAIFRQDSSSTGWNETIVENLLANVYHQINHLKTVLEEKLEKEDFTRGKLMSSLHLKRYYGRILHYLKAKEYSHCAWTIVRVEILRNFYFINRLTGYLRN", "MEASURED": 0.179}
